Assayed Target: UCHL3 (UniProt P15374)
Sequence (whole entry): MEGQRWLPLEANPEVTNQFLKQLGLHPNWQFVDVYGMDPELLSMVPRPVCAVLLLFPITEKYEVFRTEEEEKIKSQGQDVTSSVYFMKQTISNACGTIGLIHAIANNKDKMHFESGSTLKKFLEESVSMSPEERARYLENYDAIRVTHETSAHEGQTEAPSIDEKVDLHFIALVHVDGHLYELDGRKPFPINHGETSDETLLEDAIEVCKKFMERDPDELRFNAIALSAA
Procedure Text: log2 ratio of Biotin-Ahx-Ub-VS probe labelling (fragment/DMSO); higher = less target engagement (more negative = stronger competition), active = hit call of the paper (q ≤ 0.05, log2 ratio ≤ -1)
Stated Conditions: compound concentration: 200 uM; treatment time: 3 h
Reported Property: log2 ratio of Biotin-Ahx-Ub-VS probe labelling

Give measured log2 ratio of Biotin-Ahx-Ub-VS probe labelling for every item shown.
1. Cl.O=C(CCl)N1CCn2cncc2C1
2. O=C(CCl)N1c2ccccc2NC(=O)C12CCCC2

[out]
1: 0.291 (inactive); 2: 0.749 (inactive)

[in] Any idea what its log2 ratio of Biotin-Ahx-Ub-VS probe labelling is? The compound is "Cc1noc(N2CCN(C(=O)CCl)CC2)n1.Cl"
[out] 0.0214 (inactive)

* * *

Provide the recorded log2 ratio of Biotin-Ahx-Ub-VS probe labelling for the entries that follow.
Assayed Target: USP4 (UniProt Q13107)
Sequence (Q13107 whole entry, the tested form may be a part): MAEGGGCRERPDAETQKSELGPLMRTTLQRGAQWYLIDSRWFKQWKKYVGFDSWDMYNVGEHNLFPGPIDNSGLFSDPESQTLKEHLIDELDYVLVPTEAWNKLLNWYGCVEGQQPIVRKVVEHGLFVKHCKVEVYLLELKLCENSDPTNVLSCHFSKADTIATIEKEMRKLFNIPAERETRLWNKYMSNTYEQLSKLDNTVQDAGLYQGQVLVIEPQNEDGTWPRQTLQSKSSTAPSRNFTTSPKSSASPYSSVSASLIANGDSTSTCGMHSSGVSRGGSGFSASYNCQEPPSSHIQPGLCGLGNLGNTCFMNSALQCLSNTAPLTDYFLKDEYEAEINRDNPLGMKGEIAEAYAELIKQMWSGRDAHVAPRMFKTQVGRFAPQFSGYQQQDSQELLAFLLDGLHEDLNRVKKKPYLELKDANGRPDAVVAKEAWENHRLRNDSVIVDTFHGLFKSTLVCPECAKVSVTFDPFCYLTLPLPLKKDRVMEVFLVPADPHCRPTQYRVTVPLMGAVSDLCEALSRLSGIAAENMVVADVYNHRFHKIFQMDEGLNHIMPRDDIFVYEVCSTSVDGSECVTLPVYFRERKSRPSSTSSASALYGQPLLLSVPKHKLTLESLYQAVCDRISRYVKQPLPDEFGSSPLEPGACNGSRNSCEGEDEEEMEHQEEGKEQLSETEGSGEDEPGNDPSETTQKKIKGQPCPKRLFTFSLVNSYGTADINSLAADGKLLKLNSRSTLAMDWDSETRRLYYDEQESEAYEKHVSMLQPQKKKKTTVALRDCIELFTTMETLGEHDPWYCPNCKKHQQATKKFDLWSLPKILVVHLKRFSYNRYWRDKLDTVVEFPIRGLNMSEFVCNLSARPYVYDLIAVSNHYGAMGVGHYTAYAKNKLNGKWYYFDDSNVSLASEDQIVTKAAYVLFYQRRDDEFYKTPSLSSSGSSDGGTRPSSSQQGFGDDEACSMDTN
Procedure Text: log2 ratio of Biotin-Ahx-Ub-VS probe labelling (fragment/DMSO); higher = less target engagement (more negative = stronger competition), active = hit call of the paper (q ≤ 0.05, log2 ratio ≤ -1)
Stated Conditions: compound concentration: 200 uM; treatment time: 3 h
Give bare numbers.

{"Compound": "Cl.O=C(CCl)N1CCn2ncc(O)c2C1", "Test Result": -0.298}

I would be grateful if you could provide log2 ratio of Biotin-Ahx-Ub-VS probe labelling for each of the following entries.
1. O=C(CCl)N1CCc2[nH]c3ccccc3c2C1
2. CNC(=O)Cn1cc(NC(=O)CCl)cn1
3. CC1Cc2ccccc2N1C(=O)CCl (configuration not stated)
4. Cc1cccc(C)c1NC(=O)CCl
5. CCN1C(=O)C2CN(C(=O)CCl)CCN2C1=O (configuration not stated)
6. O=C(CCl)N[C@H]1CC[C@@H](CO)CC1

[out]
1: -1.51; 2: -0.0895; 3: -0.603; 4: -0.132; 5: 0.0781; 6: -0.775

* * *

Assayed Target: USP15 (UniProt Q9Y4E8)
Sequence (Q9Y4E8 whole entry, the tested form may be a part): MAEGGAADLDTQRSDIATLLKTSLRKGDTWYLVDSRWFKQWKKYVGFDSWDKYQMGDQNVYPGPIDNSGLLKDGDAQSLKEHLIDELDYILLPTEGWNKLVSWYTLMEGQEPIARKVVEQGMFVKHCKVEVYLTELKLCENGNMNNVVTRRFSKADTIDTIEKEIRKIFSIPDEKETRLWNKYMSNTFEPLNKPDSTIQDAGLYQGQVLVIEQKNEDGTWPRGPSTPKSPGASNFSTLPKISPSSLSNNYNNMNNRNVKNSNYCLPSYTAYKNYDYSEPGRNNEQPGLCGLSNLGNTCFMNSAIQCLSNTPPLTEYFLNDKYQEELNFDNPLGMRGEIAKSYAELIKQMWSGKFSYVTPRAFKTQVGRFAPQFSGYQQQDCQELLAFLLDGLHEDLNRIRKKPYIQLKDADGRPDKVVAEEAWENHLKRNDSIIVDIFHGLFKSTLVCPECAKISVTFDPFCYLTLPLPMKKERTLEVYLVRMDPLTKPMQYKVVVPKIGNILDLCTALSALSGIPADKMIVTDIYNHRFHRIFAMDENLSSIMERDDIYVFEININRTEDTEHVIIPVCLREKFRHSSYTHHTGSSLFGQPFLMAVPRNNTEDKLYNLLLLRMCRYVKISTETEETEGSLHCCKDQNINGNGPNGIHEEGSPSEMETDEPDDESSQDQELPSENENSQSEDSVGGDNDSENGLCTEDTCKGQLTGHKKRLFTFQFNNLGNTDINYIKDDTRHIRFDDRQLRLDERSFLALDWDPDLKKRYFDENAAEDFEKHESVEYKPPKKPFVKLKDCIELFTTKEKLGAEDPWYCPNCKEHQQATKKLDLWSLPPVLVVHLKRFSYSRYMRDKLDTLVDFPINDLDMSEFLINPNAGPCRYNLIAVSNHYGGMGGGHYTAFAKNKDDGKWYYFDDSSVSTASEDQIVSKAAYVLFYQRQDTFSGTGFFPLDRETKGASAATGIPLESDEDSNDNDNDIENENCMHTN
Procedure Text: log2 ratio of Biotin-Ahx-Ub-VS probe labelling (fragment/DMSO); higher = less target engagement (more negative = stronger competition), active = hit call of the paper (q ≤ 0.05, log2 ratio ≤ -1)
Stated Conditions: compound concentration: 200 uM; treatment time: 3 h
Reported Property: log2 ratio of Biotin-Ahx-Ub-VS probe labelling
One number for each entry.

{"Compound": "Cl.O=C(CCl)N1CCC(Cc2nccs2)C1 (centres undefined)", "Test Result": -0.249}
{"Compound": "CCCn1nccc1NC(=O)CCl", "Test Result": -0.238}
{"Compound": "Cl.O=C(CCl)N1CCC(n2nc3ccccc3n2)CC1", "Test Result": -0.702}
{"Compound": "O=C(CCl)N1CCCC2CCCCC21 (centres undefined)", "Test Result": -0.1}

Lab note: each compound below needs its log2 ratio of Biotin-Ahx-Ub-VS probe labelling filled in.
1. CCN(C(=O)CCl)C1CCS(=O)(=O)C1 (centres undefined)
2. CC(=O)C1CCCCN1C(=O)CCl (centres undefined)

[out]
1: -0.218; 2: -0.162

Quick one: give me log2 ratio of Biotin-Ahx-Ub-VS probe labelling for each item below, same order please.
1. Cc1n[nH]c2c1CN(C(=O)CCl)CC2
2. Cc1ccc(N(CCC#N)C(=O)CCl)cc1C
3. Cl.O=C(CN1CCN(C(=O)CCl)CC1)Nc1ccc(F)cc1

[out]
1: -0.982; 2: -0.234; 3: -0.113

* * *

Assayed Target: USP22 (UniProt Q9UPT9)
Sequence (whole entry): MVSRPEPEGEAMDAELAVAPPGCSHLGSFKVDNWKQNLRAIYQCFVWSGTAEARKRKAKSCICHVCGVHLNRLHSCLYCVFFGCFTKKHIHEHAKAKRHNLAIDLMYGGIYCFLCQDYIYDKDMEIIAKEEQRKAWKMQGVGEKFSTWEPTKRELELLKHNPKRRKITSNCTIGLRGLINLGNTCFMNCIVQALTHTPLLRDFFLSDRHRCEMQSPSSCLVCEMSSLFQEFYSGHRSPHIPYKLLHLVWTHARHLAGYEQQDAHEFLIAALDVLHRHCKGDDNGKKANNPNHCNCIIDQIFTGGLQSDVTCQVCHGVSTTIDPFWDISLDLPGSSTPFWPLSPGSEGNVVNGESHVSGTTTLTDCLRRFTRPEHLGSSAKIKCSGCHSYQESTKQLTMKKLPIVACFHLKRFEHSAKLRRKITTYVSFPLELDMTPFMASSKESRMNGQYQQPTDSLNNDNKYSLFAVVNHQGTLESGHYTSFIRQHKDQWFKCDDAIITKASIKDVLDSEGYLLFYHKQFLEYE
Procedure Text: log2 ratio of Biotin-Ahx-Ub-VS probe labelling (fragment/DMSO); higher = less target engagement (more negative = stronger competition), active = hit call of the paper (q ≤ 0.05, log2 ratio ≤ -1)
Stated Conditions: compound concentration: 200 uM; treatment time: 3 h
Exercise: state measured log2 ratio of Biotin-Ahx-Ub-VS probe labelling for each of the compounds provided.
One number for each entry.

{"Compound": "O=C(CCl)N1CCc2[nH]c3ccccc3c2C1", "Test Result": -0.357}

For each of the items listed, what is its log2 ratio of Biotin-Ahx-Ub-VS probe labelling?
1. CN(C(=O)CCl)c1nc2ccccc2s1
2. Cl.Cn1nc2c(c1CNC(=O)CCl)CCCC2
3. Cc1cccc(N(CCC#N)C(=O)CCl)c1C
4. O=C(CCl)NCc1cccc(N2CCCC2=O)c1
5. O=C(CCl)NCC1(c2ccccc2)CC1
6. NC(=O)C1CCCN(C(=O)CCl)C1 (stereo unspecified)

[out]
-0.0338
-0.0746
-0.11
0.303
0.0204
0.245

* * *

Please provide measured log2 ratio of Biotin-Ahx-Ub-VS probe labelling for the entries that follow.
Assayed Target: OTUD6B (UniProt Q8N6M0)
Sequence (Q8N6M0 whole entry, the tested form may be a part): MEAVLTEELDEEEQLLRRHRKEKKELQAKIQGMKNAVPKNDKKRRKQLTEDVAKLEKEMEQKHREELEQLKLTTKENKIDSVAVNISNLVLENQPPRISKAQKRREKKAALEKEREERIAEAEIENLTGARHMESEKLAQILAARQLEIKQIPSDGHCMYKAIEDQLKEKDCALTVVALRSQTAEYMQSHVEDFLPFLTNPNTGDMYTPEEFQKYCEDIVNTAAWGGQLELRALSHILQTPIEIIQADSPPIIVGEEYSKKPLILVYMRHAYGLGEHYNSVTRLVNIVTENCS
Procedure Text: log2 ratio of Biotin-Ahx-Ub-VS probe labelling (fragment/DMSO); higher = less target engagement (more negative = stronger competition), active = hit call of the paper (q ≤ 0.05, log2 ratio ≤ -1)
Stated Conditions: compound concentration: 200 uM; treatment time: 3 h
Numbers only.

{"Molecule": "Cc1noc(C)c1CNC(=O)CCl", "Test Result": -0.543}
{"Molecule": "CC1Cc2ccccc2N1C(=O)CCl (stereo unspecified)", "Test Result": -0.391}
{"Molecule": "O=C(CCl)Nc1ccc(Cl)c(F)c1", "Test Result": -0.448}
{"Molecule": "CN(Cc1nc2ccccc2[nH]1)C(=O)CCl.Cl", "Test Result": -0.0126}
{"Molecule": "O=C(CCl)N1CCC(c2noc3cc(F)ccc23)CC1", "Test Result": -0.0328}

Now consider the entry below.
[in] GET /values?readout=log2 ratio of Biotin-Ahx-Ub-VS probe labelling&system=OTUD6B (UniProt Q8N6M0)&item= Cc1cc(CC(C)NC(=O)CCl)n[nH]1 (stereo unspecified)
[out] -0.0562

* * *

Assayed Target: VCPIP1 (UniProt Q96JH7)
Sequence (Q96JH7 whole entry, the tested form may be a part): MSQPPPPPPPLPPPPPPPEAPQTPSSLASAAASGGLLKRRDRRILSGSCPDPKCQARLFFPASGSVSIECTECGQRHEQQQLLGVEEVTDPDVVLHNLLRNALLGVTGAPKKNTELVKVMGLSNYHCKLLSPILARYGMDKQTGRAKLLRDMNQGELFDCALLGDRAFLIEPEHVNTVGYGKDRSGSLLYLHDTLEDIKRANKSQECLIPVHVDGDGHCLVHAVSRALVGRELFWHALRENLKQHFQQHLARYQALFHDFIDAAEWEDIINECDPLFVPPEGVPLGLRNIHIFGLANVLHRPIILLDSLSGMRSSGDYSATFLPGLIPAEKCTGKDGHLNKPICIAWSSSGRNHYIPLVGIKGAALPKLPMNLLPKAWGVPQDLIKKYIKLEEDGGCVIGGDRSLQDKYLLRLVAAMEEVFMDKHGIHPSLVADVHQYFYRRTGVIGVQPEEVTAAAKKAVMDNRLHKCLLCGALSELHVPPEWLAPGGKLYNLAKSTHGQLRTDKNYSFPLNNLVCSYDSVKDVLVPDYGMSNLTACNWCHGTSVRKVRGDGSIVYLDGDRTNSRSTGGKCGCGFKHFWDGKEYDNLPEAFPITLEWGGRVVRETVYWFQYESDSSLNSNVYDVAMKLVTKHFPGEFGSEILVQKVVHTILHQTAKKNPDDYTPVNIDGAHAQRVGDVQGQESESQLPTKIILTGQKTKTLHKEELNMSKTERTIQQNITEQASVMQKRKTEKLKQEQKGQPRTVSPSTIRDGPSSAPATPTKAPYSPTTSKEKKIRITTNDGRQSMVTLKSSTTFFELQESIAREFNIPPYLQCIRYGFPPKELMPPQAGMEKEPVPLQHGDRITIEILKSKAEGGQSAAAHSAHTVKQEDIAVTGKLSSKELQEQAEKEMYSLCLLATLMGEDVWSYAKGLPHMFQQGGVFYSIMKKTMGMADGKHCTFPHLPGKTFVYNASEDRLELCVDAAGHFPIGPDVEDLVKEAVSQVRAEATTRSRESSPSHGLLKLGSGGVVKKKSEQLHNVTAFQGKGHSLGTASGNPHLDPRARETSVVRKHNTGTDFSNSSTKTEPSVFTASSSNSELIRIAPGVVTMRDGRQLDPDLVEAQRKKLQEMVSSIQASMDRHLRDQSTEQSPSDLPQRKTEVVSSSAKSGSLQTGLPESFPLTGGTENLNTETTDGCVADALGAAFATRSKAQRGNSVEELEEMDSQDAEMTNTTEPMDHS
Procedure Text: log2 ratio of Biotin-Ahx-Ub-VS probe labelling (fragment/DMSO); higher = less target engagement (more negative = stronger competition), active = hit call of the paper (q ≤ 0.05, log2 ratio ≤ -1)
Stated Conditions: compound concentration: 200 uM; treatment time: 3 h
Please answer using one outcome listed in label 1 (active), label 0 (inactive)

Completed entries (count: 3):
{"Compound": "Cc1conc1C1CN(C(=O)CCl)C1", "Group": "label 0"}
{"Compound": "CC(NC(=O)CCl)c1csc(-c2ccccc2)n1.Cl (centres undefined)", "Group": "label 1"}
{"Compound": "CN(CCc1ncc(Br)cn1)C(=O)CCl.Cl", "Group": "label 1"}

[in] What did the test return for "O=C(CCl)NCc1ccc(Cl)cc1" ?
[out] label 1

[in] I would be grateful if you could indicate the recorded call for "CN(C)C(=O)c1ccc(NC(=O)CCl)cc1" .
[out] label 0

[in] // return assay outcome for "Cc1nc(CN2CCCN(C(=O)CCl)CC2)no1.Cl"
[out] label 0

[in] Can you look up the reported call for "Cl.O=C(CCl)N[C@H]1C[C@@H](n2cccn2)C1" for me?
[out] label 0

[in] Field: outcome | Entry: "O=C(CCl)N1CCc2sccc2C1"
[out] label 0

[in] Write down the call the test reported for this compound. Item: "O=C(CCl)Nc1nnc(CC(F)(F)F)o1"
[out] label 0

[in] What is the recorded call for this compound in the test? "O=C(CCl)Nc1cccc(C(=O)N2CCSCC2)c1"
[out] label 0
